Source listed as patent US20260242735A1.

Known Mean % WT Binding of a selection of binders
system.tested: human CD33 P132D (human, UniProt P20138 18-364)
Sequence (P20138 18-364 P132D limits assumed): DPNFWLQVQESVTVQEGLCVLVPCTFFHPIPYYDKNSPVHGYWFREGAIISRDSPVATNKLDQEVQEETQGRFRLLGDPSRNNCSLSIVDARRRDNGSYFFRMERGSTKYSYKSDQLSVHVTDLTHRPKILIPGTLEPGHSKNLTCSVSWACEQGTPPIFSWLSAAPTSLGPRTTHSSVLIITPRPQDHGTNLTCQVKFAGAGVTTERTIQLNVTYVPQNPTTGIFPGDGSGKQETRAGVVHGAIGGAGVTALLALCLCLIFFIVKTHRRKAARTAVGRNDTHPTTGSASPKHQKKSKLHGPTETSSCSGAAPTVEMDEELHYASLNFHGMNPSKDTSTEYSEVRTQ
test.name: flow cytometry, HEK293-T, IgG;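 note: CD33 point mutants transiently expressed, antibody binding measured by fluorescence in duplicate, background subtracted and scaled to binding on wild-type CD33 as 100%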
Report the figure in % WT binding without appending any unit label.

Consider the worked cases shown below.
>  <binder>
Refmab #4 (antibody, human IgG1, V domains shown, tested in IgG format) VH: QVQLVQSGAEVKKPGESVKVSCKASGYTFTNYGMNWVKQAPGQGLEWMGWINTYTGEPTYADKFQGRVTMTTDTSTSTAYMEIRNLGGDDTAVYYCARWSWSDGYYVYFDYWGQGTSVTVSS VL: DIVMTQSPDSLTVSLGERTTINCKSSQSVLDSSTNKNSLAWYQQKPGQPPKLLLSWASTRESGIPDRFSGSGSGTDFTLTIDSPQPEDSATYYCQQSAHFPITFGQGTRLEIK

>  <Mean % WT Binding (% WT binding)>
99.6

$$$$
>  <binder>
Refmab #3 (antibody, human IgG1, V domains shown, tested in IgG format) VH: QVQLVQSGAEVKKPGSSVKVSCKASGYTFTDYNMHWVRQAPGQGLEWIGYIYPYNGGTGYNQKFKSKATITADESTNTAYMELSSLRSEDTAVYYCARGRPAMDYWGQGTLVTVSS VL: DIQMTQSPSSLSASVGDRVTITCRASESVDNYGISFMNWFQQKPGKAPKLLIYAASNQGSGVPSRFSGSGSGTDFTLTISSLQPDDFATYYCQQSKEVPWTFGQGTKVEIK

>  <Mean % WT Binding (% WT binding)>
92.7

$$$$
>  <binder>
Refmab #2 (antibody, human IgG1, V domains shown, tested in IgG format) VH: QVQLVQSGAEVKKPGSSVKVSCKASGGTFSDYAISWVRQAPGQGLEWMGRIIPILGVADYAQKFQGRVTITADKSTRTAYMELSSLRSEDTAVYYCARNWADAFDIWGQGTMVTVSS VL: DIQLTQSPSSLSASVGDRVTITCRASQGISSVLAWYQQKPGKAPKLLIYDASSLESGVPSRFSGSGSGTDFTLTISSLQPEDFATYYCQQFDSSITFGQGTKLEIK

>  <Mean % WT Binding (% WT binding)>
73.6

$$$$

Alright, here's another binder for you.
Quick one: give measured Mean % WT Binding for Refmab #1 (antibody, human IgG1, V domains shown, tested in IgG format; also called hP67.6) VH: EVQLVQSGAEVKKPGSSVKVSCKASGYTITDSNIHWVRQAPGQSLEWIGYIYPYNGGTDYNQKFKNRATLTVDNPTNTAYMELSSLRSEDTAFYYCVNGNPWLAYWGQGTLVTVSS VL: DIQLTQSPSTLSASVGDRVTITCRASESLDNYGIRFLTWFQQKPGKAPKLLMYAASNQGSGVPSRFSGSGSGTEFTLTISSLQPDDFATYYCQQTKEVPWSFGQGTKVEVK 89.9
